Reference for the values: paper PMC9101764

Molecular target: hCB1R (Homo sapiens)
Construct: expressed in transfected cells; host or cells: CHO cells (membranes)
Sequence (P21554 whole entry): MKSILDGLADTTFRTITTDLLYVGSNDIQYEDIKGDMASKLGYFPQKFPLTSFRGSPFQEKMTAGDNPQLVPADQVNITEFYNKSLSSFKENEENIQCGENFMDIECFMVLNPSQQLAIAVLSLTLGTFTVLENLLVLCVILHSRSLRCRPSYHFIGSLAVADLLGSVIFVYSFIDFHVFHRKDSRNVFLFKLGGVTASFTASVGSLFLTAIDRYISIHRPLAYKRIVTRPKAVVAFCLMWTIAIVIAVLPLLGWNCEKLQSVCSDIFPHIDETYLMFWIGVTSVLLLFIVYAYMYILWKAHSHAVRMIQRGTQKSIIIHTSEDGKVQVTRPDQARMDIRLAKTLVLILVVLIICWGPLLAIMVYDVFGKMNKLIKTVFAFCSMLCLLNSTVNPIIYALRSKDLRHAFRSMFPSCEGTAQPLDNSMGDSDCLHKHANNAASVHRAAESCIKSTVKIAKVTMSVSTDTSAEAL
Assay: [3H]CP55,940 radioligand displacement assay, CHO cell membranes
Type: binding
Conditions: read-out: CB1R Ki
RESULT_TYPE: Ki

INSERT INTO results (molecule, test_value) VALUES
  ('CC1CCC(NC(=O)c2cc3cccnc3n(CCCCCN=[N+]=[N-])c2=O)CC1 (stereo not shown) [FG161a]', '> 10 µM');

----------
Target: hCB2R (Homo sapiens, UniProt P34972)
Construct: host or cells: HitHunter CHO-K1 cells
Sequence (P34972 whole entry): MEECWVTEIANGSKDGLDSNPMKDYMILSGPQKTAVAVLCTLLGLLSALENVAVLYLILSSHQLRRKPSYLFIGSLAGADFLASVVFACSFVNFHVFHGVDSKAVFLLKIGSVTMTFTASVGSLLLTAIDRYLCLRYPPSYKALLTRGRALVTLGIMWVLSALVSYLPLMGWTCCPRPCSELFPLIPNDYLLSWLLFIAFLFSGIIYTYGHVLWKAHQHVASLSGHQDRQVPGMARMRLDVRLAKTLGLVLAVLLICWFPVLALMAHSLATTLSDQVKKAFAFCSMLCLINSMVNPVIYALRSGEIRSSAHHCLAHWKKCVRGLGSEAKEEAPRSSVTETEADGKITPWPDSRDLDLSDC
Experiment: PathHunter β-arrestin2 recruitment assay in CHO cells
Format: cell-based
Conditions: CHO cells expressing human CB2R; 90 min
Reported β-Arrestin2 Recruitment Emax (% CP55,940) ± S.E.M by item:
RESULT_TYPE: β-Arrestin2 Recruitment Emax (% CP55,940) ± S.E.M

INSERT INTO measurements (compound, test_value) VALUES
  ('CC1CCC(NC(=O)c2cc3cccnc3n(CCCCCBr)c2=O)CC1 (stereo not shown) [FG158a]', '46 ± 1.8 % CP55,940'),
  ('CC1CCC(NC(=O)c2cc3cccnc3n(CCCCCCl)c2=O)CC1 (stereo not shown) [FG160a]', '41 ± 1.0 % CP55,940'),
  ('CC1CCC(NC(=O)c2cc3cccnc3n(CCCCCN=[N+]=[N-])c2=O)CC1 (stereo not shown) [FG161a]', '47 ± 1.8 % CP55,940'),
  ('CC1CCC(NC(=O)c2cc3cccnc3n(CCCCCO)c2=O)CC1 (stereo not shown) [LV62, reference compound]', '65 ± 1.4 % CP55,940');
